Taken from patent US9120789B2.

test system: SW620 human colorectal carcinoma cells (mutant RAS) xenograft; assay: Xenograft study, mutant RAS SW620; type: in vivo, mice; conditions: athymic mice, gavage once daily for 24 doses
Below, each of the compounds is paired with its reported Ratio of: Tumour Volume (Treatment)/Tumour Volume (Control) (mutant RAS SW620 xenograft) value.
test-readout: Ratio of: Tumour Volume (Treatment)/Tumour Volume (Control) (mutant RAS SW620 xenograft)

input-smiles | cmp | reported-result
CC(C)(C)c1cc(NC(=O)Nc2ccc(Oc3ccnc4[nH]c(=O)[nH]c34)cc2)n(-c2ccc(F)cc2)n1 | = | 0.87
Cn1c(=O)[nH]c2nccc(Oc3ccc(NC(=O)Nc4cc(C(C)(C)C)nn4-c4ccccc4)c(F)c3)c21 | = | 0.34
Cc1ccc(-n2nc(C(C)(C)C)cc2NC(=O)Nc2ccc(Oc3ccnc4[nH]c(=O)n(C)c34)cc2)cc1 | = | 0.95
Cc1ccc(-n2nc(C(C)(C)C)cc2NC(=O)Nc2ccc(Oc3ccnc4[nH]c(=O)n(C)c34)c3ccccc23)cc1 | = | 0.66
CC(C)(C)c1cc(NC(=O)Nc2ccc(Oc3ccnc4[nH]c(=O)[nH]c34)cc2)n(-c2ccccc2)n1 | > | 1
Cn1c(=O)n(C)c2c(Oc3ccc(NC(=O)Nc4cc(C(C)(C)C)nn4-c4ccccc4)c(F)c3)ccnc21 | = | 0.97
